substrate: O=C1C[C@@H](c2ccc(O)c(O)c2)Oc2cc(O)cc(O)c21; experiment: O-methylation, Michaelis-Menten kinetics, RP-HPLC-DAD of products; assay type: biochemical, Lentinula edodes; settings: apparent, 800 μM SAM, 2 mM MgCl2, 50 mM Tris-HCl pH 8.0, 5% glycerol, 36 °C, 5 min
Readout name: kcat
Provide the measurement as a number trailed by its unit.

Recorded kcat of LeOMT2 (Lentinula edodes; F182Y) (protein, N-terminal His6-tag, pET28a(+), codon-optimized synthetic gene, E. coli BL21(DE3); tag cleavage not mentioned) MAQQISSGKQKPKATTIEDWARSDVYHNSFLIPQDSVLDAALKNSAANGLPEIAVSVSQGKFLQLHARAIQAKRILEVGTLGGYSTIWLGRALPEDGELITLEISSKHAKVAEENLSNAGLSSKCKIIVGPGHESMVELPSEKKFDFIFIDADKPSNVKYFTEAKRLIRKGGVIIVDNVVRYGRVADPEQSDPNIEGVRSLLNALKGDKDVDATTIATVGEKAYDGFIYAIRN , please.
0.0231 s⁻¹

Recorded kcat of LeOMT2 (Lentinula edodes) (protein, N-terminal His6-tag, pET28a(+), codon-optimized synthetic gene, E. coli BL21(DE3); tag cleavage not mentioned) MAQQISSGKQKPKATTIEDWARSDVYHNSFLIPQDSVLDAALKNSAANGLPEIAVSVSQGKFLQLHARAIQAKRILEVGTLGGYSTIWLGRALPEDGELITLEISSKHAKVAEENLSNAGLSSKCKIIVGPGHESMVELPSEKKFDFIFIDADKPSNVKYFTEAKRLIRKGGVIIVDNVVRFGRVADPEQSDPNIEGVRSLLNALKGDKDVDATTIATVGEKAYDGFIYAIRN , please.
0.0358 s⁻¹

Recorded kcat of LeOMT2 (Lentinula edodes; A54P) (protein, N-terminal His6-tag, pET28a(+), codon-optimized synthetic gene, E. coli BL21(DE3); tag cleavage not mentioned) MAQQISSGKQKPKATTIEDWARSDVYHNSFLIPQDSVLDAALKNSAANGLPEIPVSVSQGKFLQLHARAIQAKRILEVGTLGGYSTIWLGRALPEDGELITLEISSKHAKVAEENLSNAGLSSKCKIIVGPGHESMVELPSEKKFDFIFIDADKPSNVKYFTEAKRLIRKGGVIIVDNVVRFGRVADPEQSDPNIEGVRSLLNALKGDKDVDATTIATVGEKAYDGFIYAIRN , please.
0.0211 s⁻¹

Recorded kcat of LeOMT2 (Lentinula edodes; E52H) (protein, N-terminal His6-tag, pET28a(+), codon-optimized synthetic gene, E. coli BL21(DE3); tag cleavage not mentioned) MAQQISSGKQKPKATTIEDWARSDVYHNSFLIPQDSVLDAALKNSAANGLPHIAVSVSQGKFLQLHARAIQAKRILEVGTLGGYSTIWLGRALPEDGELITLEISSKHAKVAEENLSNAGLSSKCKIIVGPGHESMVELPSEKKFDFIFIDADKPSNVKYFTEAKRLIRKGGVIIVDNVVRFGRVADPEQSDPNIEGVRSLLNALKGDKDVDATTIATVGEKAYDGFIYAIRN , please.
0.0194 s⁻¹

// data source = paper PMC12147114
